Target: UniProt Q05513
Sequence (Q05513 whole entry, looked up): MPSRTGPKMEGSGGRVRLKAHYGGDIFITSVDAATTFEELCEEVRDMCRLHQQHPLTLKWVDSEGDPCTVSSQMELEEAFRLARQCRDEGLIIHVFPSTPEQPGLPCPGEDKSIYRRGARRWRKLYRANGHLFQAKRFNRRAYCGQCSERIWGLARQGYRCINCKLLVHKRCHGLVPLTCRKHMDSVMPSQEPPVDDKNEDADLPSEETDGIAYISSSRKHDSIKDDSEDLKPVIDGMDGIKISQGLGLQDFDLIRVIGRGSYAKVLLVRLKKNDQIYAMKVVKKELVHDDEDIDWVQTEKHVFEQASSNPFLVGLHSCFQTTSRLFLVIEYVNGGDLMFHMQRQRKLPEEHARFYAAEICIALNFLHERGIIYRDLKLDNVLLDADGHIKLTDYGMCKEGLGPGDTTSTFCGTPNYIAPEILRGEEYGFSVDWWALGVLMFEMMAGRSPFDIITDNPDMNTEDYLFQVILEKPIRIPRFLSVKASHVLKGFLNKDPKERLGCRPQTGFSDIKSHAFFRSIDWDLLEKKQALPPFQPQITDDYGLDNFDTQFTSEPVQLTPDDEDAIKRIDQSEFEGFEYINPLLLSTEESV
Test: radiometric filter-binding kinase assay
Settings: compound 10.0 µM
Reported residual activity values for the following compounds.
Hey, just the number and the unit after it is fine.

N#Cc1c(C2CCNCC2)cc(-c2c(O)cccc2OCC2CC2)nc1N    76%

Value lookup for residual activity; key = "c1ccc2c(-c3cnn4cc(-c5ccc(N6CCNCC6)cc5)cnc34)ccnc2c1" 55%

// query residual activity value for entry "Oc1ccc(/C=C/c2cc(O)cc(O)c2)cc1" 105%

Could you share which residual activity value was measured for "Cc1nc(-c2ccc(OCC(C)C)c(C#N)c2)sc1C(=O)O" ? 96%

Form field: reported residual activity of "CCn1c(-c2nonc2N)nc2cncc(CNC3CCNCC3)c21" 25%

Look up residual activity for this compound: "NC1(c2ccc(-c3nc4ccn5c(=O)[nH]nc5c4cc3-c3ccccc3)cc2)CCC1" 97%

Return reported residual activity; argument: "Cc1cccc(Nc2nn(C)c3ncnc(N)c23)c1" 112%

Give its residual activity value. Item: "Cc1ccc(-c2ccc3c(ccc4sc5c(c43)NC[C@@H](C)NC5=O)n2)cn1" 106%

Could you share which residual activity value was measured for "NC(=O)c1c(NC(=O)C2CC2)sc2c1CCCC2" ? 104%

Please report the recorded residual activity for "Cn1nc(Nc2ccc(F)cc2)c2c(N)ncnc21" . 102%

Item COc1ccc2c(c1)c1c3c(c4c5ccccc5n(C)c4c1n2CC(O)CN(C)C)C(=O)NC3=O (stereo unspecified) has what recorded residual activity? 62%

====

Test system: LCK (mouse)
Assay: radiometric filter-binding kinase assay
Details: compound 0.01 µM; accession and sequence are those of the human protein
// classify: if (residual activity < 80%) label 1 else label 0

Given "COc1ccc(N(C(=O)Nc2c(C)cccc2C)c2cc(Nc3ccc(N4CCN(C)CC4)cc3)ncn2)c(OC)c1" , is recorded residual activity strictly lower than 80%? label 1

Strictly below 80%: is that where residual activity of "C/C(=C1/C(=O)Nc2ccc(NC(N)=O)cc21)c1ccc[nH]1" sits? label 0

hey, is residual activity for "O=C(Nc1nc2cc(C(F)(F)F)cc(NC3CC3)n2n1)c1cccnc1" lower than 80% or not? label 0

Given the entry CNC(=O)C1[C@H]2O[C@@](C)([C@@H]1N)n1c3ccccc3c3c4c(c5c6ccccc6n2c5c31)C(=O)NC4 (stereo partly specified) , would its reported residual activity be below 80%? label 1

Input "CNc1nc(-c2ccc3c(N)n[nH]c3c2)cc(N2C[C@@H](C(=O)NC3CCCCC3)CC[C@H]2C)n1" ; condition: residual activity strictly below 80%. Does it hold? label 0

====

Biological target: IGF1R (human)
Experiment: radiometric filter-binding kinase assay
Settings: compound 1.0 µM
measured quantity: residual activity (%)
// units = %; emit number, no label

Example entries begin here.
O=C(Nc1ccccc1-c1cn2c(CN3CCNCC3)csc2n1)c1cnc2ccccc2n1    96
NS(=O)(=O)OC[C@@H]1C[C@@H](n2ccc3c(N[C@H]4CCc5ccccc54)ncnc32)C[C@@H]1O    94
COc1cc(C(=O)N2CCOCC2)c(F)cc1Nc1ncc(C(F)(F)F)c(NC2CC2)n1    35
CC(C)(C#N)c1ccc(N2C(=O)OCc3cnc4ccc(-c5cnc6ccccc6c5)cc4c32)cc1    89
CCn1c(-c2nonc2N)nc2cncc(CNC3CCNCC3)c21    107
CCCCCc1ccc(/C=C/[C@H](O)[C@@H](CO)NC)cc1    86

Next item in the queue.
Tell me the measured residual activity of "O=C(Nc1cccnc1)c1cc(-c2ccnc(F)c2)ccc1OCc1ccccc1" , please. 123

====

Target: MARK3 (human) (UniProt P27448)
Sequence (P27448 whole entry, looked up): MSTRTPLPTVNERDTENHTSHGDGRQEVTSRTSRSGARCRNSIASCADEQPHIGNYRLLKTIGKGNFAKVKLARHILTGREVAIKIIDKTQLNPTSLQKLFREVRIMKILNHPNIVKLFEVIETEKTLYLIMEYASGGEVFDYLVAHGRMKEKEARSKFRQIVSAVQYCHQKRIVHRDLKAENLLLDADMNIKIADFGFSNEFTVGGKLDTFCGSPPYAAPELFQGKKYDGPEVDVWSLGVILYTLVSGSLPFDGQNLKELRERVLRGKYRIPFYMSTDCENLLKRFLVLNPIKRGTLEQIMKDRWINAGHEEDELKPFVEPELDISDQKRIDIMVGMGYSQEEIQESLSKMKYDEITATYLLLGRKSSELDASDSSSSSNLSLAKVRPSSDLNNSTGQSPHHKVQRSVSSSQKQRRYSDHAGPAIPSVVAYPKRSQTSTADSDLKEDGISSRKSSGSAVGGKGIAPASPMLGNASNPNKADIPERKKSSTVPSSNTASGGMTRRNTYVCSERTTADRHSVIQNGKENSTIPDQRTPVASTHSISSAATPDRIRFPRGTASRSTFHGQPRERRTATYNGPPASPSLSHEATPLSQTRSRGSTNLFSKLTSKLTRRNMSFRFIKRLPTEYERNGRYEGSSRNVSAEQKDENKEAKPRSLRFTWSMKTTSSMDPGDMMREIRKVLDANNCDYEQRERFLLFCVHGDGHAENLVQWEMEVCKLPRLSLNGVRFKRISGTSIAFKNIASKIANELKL
Assay: radiometric filter-binding kinase assay
Conditions: compound 10.0 µM
measured quantity: residual activity (%)
Quick note: give the figure in %, leave out the unit.

I'd like to know its residual activity. The compound in question is "N#Cc1c(O)c2c(-c3ccc(-c4ccccc4O)cc3)csc2[nH]c1=O" 78

Quick check: residual activity of "COc1cc2ncn(-c3cc(OCc4ccccc4S(C)(=O)=O)c(C#N)s3)c2cc1OC" ? 41

Please look up its residual activity: "O=C1NC(=S)N[C@@H]1Cc1c[nH]c2ccccc12" 85

Any idea what its residual activity is? The compound is Nc1cccc2c1CN(C1CCC(=O)NC1=O)C2=O (stereo unspecified) 94

Give the measured residual activity of "O=C(O)c1cc(N=Nc2ccc(S(=O)(=O)Nc3ccccn3)cc2)ccc1O" . 109

====

residual activity listing for selected molecules.
Target: DDR2 (human) (UniProt Q16832)
Sequence (Q16832 whole entry, looked up): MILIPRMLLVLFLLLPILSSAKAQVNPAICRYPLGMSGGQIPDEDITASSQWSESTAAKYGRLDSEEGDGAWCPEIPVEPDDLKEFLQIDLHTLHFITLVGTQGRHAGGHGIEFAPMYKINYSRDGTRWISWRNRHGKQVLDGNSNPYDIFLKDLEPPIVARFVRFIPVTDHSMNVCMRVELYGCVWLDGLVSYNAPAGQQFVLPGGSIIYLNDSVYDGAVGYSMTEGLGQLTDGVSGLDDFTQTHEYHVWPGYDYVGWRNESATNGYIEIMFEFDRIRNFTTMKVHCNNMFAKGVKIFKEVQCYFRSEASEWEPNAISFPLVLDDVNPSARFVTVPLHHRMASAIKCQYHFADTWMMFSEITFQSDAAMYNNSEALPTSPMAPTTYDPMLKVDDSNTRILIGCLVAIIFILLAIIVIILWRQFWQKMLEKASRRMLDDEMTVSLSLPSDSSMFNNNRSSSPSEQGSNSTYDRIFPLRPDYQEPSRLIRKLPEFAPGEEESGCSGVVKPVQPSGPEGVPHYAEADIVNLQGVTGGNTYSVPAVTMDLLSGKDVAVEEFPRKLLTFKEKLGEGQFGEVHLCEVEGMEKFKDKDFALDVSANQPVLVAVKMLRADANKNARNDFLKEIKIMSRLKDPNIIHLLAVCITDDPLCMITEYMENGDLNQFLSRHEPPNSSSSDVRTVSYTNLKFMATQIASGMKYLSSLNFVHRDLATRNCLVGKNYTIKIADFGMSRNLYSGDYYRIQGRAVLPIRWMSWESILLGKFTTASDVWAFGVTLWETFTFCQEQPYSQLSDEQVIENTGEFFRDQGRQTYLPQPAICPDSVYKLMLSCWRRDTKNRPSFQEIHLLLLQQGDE
Assay: radiometric filter-binding kinase assay
Conditions: compound 10.0 µM
API: value field is a number in %; no unit string.

Worked cases, residual activity given:
NCC(=O)Nc1ccc(-n2nc(C(F)(F)F)cc2-c2ccc3c(ccc4ccccc43)c2)cc1    101
Cc1ccc(-c2ccc3c(ccc4sc5c(c43)NC[C@@H](C)NC5=O)n2)cn1    91
Nc1cccc2c1CN(C1CCC(=O)NC1=O)C2=O (stereo not drawn)    102
COC(=O)/C=C/C(=O)OC    103
CCNc1nc(Nc2cc(F)c(C(=O)N3CCOCC3)cc2OC)ncc1C(F)(F)F    98
CCn1c(-c2nonc2N)nc2cncc(CNC3CCNCC3)c21    104

# lookup: residual activity of CC1=C(CO)C(=O)O[C@@H]([C@@H](C)[C@H]2CC[C@H]3[C@@H]4C[C@H]5O[C@]56[C@@H](O)C=CC(=O)[C@]6(C)C4CC[C@]23C)C1 (stereo partly drawn) 94

Give the measured residual activity of "COc1cc(C(=O)N2CCOCC2)c(F)cc1Nc1ncc(C(F)(F)F)c(NC2CC2)n1" . 100

====

Target: PKN2 (human) (UniProt Q16513)
Sequence (Q16513 whole entry, looked up): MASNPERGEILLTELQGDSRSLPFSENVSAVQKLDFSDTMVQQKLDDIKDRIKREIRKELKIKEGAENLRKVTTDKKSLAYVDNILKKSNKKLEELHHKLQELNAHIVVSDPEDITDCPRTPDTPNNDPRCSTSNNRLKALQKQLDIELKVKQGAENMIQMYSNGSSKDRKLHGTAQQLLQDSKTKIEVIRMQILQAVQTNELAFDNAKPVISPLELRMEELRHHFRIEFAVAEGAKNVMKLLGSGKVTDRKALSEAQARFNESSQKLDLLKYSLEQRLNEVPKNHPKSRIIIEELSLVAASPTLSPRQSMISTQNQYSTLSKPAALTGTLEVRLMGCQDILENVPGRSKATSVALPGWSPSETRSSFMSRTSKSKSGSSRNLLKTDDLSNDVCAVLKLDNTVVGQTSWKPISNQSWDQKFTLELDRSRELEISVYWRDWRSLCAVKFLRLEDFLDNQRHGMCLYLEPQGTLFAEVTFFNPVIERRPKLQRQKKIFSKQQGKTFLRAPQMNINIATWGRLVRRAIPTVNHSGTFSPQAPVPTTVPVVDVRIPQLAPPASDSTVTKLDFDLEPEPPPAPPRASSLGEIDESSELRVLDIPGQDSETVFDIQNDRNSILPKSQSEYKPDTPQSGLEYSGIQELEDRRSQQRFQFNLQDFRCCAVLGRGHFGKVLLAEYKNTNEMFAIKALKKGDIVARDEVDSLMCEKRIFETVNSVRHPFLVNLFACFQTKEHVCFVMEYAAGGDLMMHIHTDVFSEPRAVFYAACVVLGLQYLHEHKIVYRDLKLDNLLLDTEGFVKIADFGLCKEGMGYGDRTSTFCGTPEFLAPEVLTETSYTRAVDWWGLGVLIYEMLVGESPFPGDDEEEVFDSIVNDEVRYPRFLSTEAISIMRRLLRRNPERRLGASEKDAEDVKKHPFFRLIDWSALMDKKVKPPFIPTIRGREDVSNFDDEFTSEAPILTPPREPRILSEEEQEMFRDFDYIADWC
Assay: radiometric filter-binding kinase assay
Conditions: compound 1.0 µM
measured quantity: residual activity (%)
Enter your answer as a number in %; do not include the unit.

Past entries and their recorded results:
Cc1cc(SCc2sc(-c3ccc(C(F)(F)F)cc3)nc2C)ccc1OCC(=O)O    102
O=C(O)c1ccc(-c2c[nH]c3ncc(-c4ccccc4)cc23)cc1C1CCCC1    31
N#Cc1c(C2CCNCC2)cc(-c2c(O)cccc2OCC2CC2)nc1N    94
Cc1cccc(Nc2nn(C)c3ncnc(N)c23)c1    119
CN(C)C/C=C/C(=O)Nc1cccc(C(=O)Nc2ccc(Nc3nccc(-c4cccnc4)n3)cc2)c1    92
Cc1ccc(-c2ccc3c(ccc4sc5c(c43)NC[C@@H](C)NC5=O)n2)cn1    101

Which residual activity is listed for O=C(NOCC(O)CO)c1ccc(F)c(F)c1Nc1ccc(I)cc1Cl (stereo not given) ? 70

I have this molecule here, "NC(=O)c1ccc(-c2ccc(Oc3cncc4sc(-c5nn[nH]n5)cc34)cc2)cc1" , and I need its recorded residual activity. 80

Record request: residual activity value, item Nc1cccc2c1CN(C1CCC(=O)NC1=O)C2=O (stereo not given) 93

Dear colleague, I am looking for the recorded residual activity of the following molecule: "O=C(NCCCNc1nc(Nc2cccc(CN3CCOCC3)c2)ncc1C1CC1)C1CCC1" 66

====

Biological target: IKBKB (human)
Test: radiometric filter-binding kinase assay
Details: compound 1.0 µM
measured quantity: residual activity (%)
Provide the reading as a plain figure in %.

// map "NC1(c2ccc(-c3nc4ccn5c(=O)[nH]nc5c4cc3-c3ccccc3)cc2)CCC1" to recorded residual activity (system: IKBKB (human)) 98

Enter reported residual activity observed with IKBKB (human) for "Cc1ccc(Sc2cnc(Nc3cccc(Br)n3)s2)cc1C(=O)N1CCN(C(=O)CN)CC1" 92

Record lookup: for IKBKB (human), what residual activity belongs to "NC(=O)c1ccc(-c2ccc(Oc3cncc4sc(-c5nn[nH]n5)cc34)cc2)cc1" ? 94

Identify the measured residual activity of "C=CC(=O)N1CCC[C@@H](n2nc(-c3ccc(Oc4ccccc4)cc3)c3c(N)ncnc32)C1" for IKBKB (human). 107

API: value(readout= residual activity, system= IKBKB (human), query= "Cn1nc(Nc2ccc(F)cc2)c2c(N)ncnc21" ) 98

====

Target: IKBKE (human)
Test: radiometric filter-binding kinase assay
Conditions: compound 10.0 µM
measured quantity: residual activity (%)
Expressed in %, but write only the number.

Oc1ccc2ccccc2c1SSc1c(O)ccc2ccccc12    70
NC(=O)c1c(NC(=O)C2CC2)sc2c1CCCC2    109
NC(=O)c1cc2c(-c3cccc(-c4ccccc4)c3)cnc(N)c2s1    31
O=C(Nc1ccccc1-c1cn2c(CN3CCNCC3)csc2n1)c1cnc2ccccc2n1    83
O=C(O)c1cc(N=Nc2ccc(S(=O)(=O)Nc3ccccn3)cc2)ccc1O    112

Note: attention shifts to another entry.
What value of measured residual activity is listed for "CCCCCc1ccc(/C=C/[C@H](O)[C@@H](CO)NC)cc1" ? 86
